# Target under test: AMP-activated protein kinase, AMPK (Homo sapiens) (UniProt P54646+O43741+P54619+Q9UGJ0+Q9Y478+Q13131+Q9UGI9)
# Assay comment: AMP-dependent Kinase enzyme assay. An in vitro enzyme assay that detects ADP turnover that is directly proportional to AMPK activity. This uses naive AMPK that is activated during the assay with MK-8722
# Assay type: functional
# Set-up: scale not given: direction of the effect not stated beside the values
# Condition set: 30 µM
Property label: Percent Effect (%)
One number for each entry, in %.

Example entries begin here.
* Cc1oc(-c2ccco2)nc1CN1CCc2cnc(C(C)C)nc2C1 | -25.9
* Cc1cc(C2CCCN(CCc3ccc4c(c3)CCO4)C2)n[nH]1 (stereo not drawn) | 3.65
* Cc1cc(CNC(=O)NCCCC(=O)N2CCc3ccccc32)no1 | -2.98
* Cc1cc(C(N)=O)ccc1NC(=O)N1CCN(c2cccs2)CC1 | -2.73
* Cc1c(CN2CCc3[nH]cnc3C2C(=O)O)[nH]c2ccc(F)cc12 (stereo not drawn) | 3.73
* Cc1nn(C)c2nc(N3CCCCC3c3nccs3)sc12 (stereo not drawn) | 5.6

For every item below, please supply its Percent Effect.
1. Cc1ccc(S(=O)(=O)N(C)CC(C)O)c(F)c1 (stereo not drawn)
2. CSc1ccc(CNC2CCCc3c2cnn3C)cc1 (stereo not drawn)

8.59
7.44

* * *

# Target under test: Tyrosyl-tRNA synthetase, putative (Trypanosoma cruzi (strain CL Brener))
# Assay comment: Trypanosoma cruzi tyrosyl tRNA synthetase (TcYRS) SOP
# Assay type: functional
# Design: scale not given: direction of the effect not stated beside the values
# Condition set: 30 µM
Property label: Percent Effect (%)
Numbers only, in %.

Example entries begin here.
• Cc1cc(NC(=O)NCC2CCOC2)no1 (stereo not given) = 7.69
• Cc1nccc(CN2CC[C@H](Oc3cccc(F)c3)[C@@](C)(O)C2)n1 = 15

For every item below, please supply its Percent Effect.
1. CN(C)CC(=O)N1CCC2(CC(=O)N(c3cccc(C#N)c3)C2)C1 (stereo not given)
2. O=c1c2ccccc2nc2n1C(CSc1ccc(Cl)cc1Cl)CN2 (stereo not given)
3. CN(C)CC1CN(Cc2coc(-c3ccccc3Cl)n2)CCO1 (stereo not given)
4. O=C(c1ccnnc1)N1CCC2(CC1)CC(N1CCOCC1)C2

5.13
10
5.13
2.5

For every item below, please supply its Percent Effect.
1. COCCN1C[C@@H]2CN(C(=O)[C@H]3CCCO3)C[C@@H]2C1=O
2. Cc1ccc(F)cc1S(=O)(=O)NCc1cccnc1N(C)C
3. O=C(CSC1CCc2ccccc2NC1=O)NCCc1ccco1 (stereo not given)
4. CCc1cc(O)nc(C2CCCN2C(=O)c2cccnc2)n1 (stereo not given)
5. Cc1nn(-c2ccccc2)c(C)c1CNC1CCc2ncnn2C1 (stereo not given)
6. COc1ccc(C(=O)NCCCn2ccnc2)c(OC)n1
7. Cc1cc(C)cc(OCC(=O)NC2CCN(S(C)(=O)=O)CC2)c1
8. Cn1cc(-c2nc(CNCCn3cccn3)cs2)cn1

1. 12.5
2. 21.2
3. 17.1
4. 5
5. 22.9
6. 22.5
7. 16.5
8. 13.2

For every item below, please supply its Percent Effect.
1. O=C(CC1CCCC1)N1C[C@@H]2CCN(c3cccnc3)C[C@@H]2C1
2. COc1cccc(CN2CCCC3(CCN(C(=O)c4ccco4)C3)C2)c1 (stereo not given)
3. CCc1nc(C2CCCN2C(=O)c2ccc3c(c2)nc(C)n3C)no1 (stereo not given)
4. O=C(N1CCCC1)N1CCC2(CCCN(CCOc3ccccc3)C2)C1 (stereo not given)
5. CCc1nc(C2CCCN2C(=O)CCCn2cccn2)no1 (stereo not given)
6. CC(C)c1nnc2n1CCN(C(=O)c1ccc3cc[nH]c3c1)C2

[0, 15, 0, 2.5, 4.71, 12.8]

* * *

# Target under test: AMP-activated protein kinase, AMPK (Homo sapiens) (UniProt P54646+O43741+P54619+Q9UGJ0+Q9Y478+Q13131+Q9UGI9)
# Assay comment: AMP-dependent Kinase enzyme assay. An in vitro enzyme assay that detects ADP turnover that is directly proportional to AMPK activity. This uses naive AMPK that is activated during the assay with MK-8722
# Assay type: functional
# Parameters: scale not given: direction of the effect not stated beside the values
# Condition set: 30 µM
Property label: Percent Effect (%)
Numbers only, in %.

* COC(=O)c1ccc(Cn2cccc(C(F)(F)F)c2=O)s1 | 3.31
* Cc1nc(COC(=O)c2cccc3c2OCCO3)cs1 | 3.39
* Cc1cc(N2CCN(Cc3ccsc3)C(CCO)C2)nc(N)n1 (stereo not drawn) | 0.121
* Cc1ccc(NC(=O)NCCn2cnc(C)c(C)c2=O)cc1F | 1.89
* CCOC(=O)C1(O)CCN(C(=O)Nc2cccc(F)c2)CC1 | -1.01
* CC(c1ccc(F)cc1F)N1CCN(CCC(=O)NC(N)=O)CC1 (stereo not drawn) | -3.39
* OCCC1(NCc2ccc(-n3cccn3)cc2)CCOCC1 | -4.22
* CN(C(=O)c1ccc2c(c1)nc(N1CC[C@H](O)C1)n2C)C1CCSCC1 | 9.79
* CCc1onc(C)c1C(=O)N1CCN(c2ncc3c(n2)CCOC3)CC1 | 13
* CCCN(CCC)C(=O)CN1CCCC1C(=O)N(C)C (stereo not drawn) | -3.78

For every item below, please supply its Percent Effect.
1. Cc1ccccc1C(=O)NC(C)CN1CCOC1=O (stereo not drawn)
2. c1csc(-c2noc(C3CNC3)n2)c1
3. CCc1n[nH]c(C(=O)N2CCC3(CCCN(CCOC)C3=O)C2)c1C (stereo not drawn)

1: 14.9; 2: 8.02; 3: 6.73

* * *

# Target under test: Tyrosyl-tRNA synthetase, putative (Trypanosoma cruzi (strain CL Brener))
# Assay comment: Trypanosoma cruzi tyrosyl tRNA synthetase (TcYRS) SOP
# Format: functional
# Parameters: scale not given: direction of the effect not stated beside the values
# Condition set: 30 µM
Can you tell me Percent Effect for the items I'm about to list?
Numbers only, in %.

Example entries begin here.
• CN(C(=O)CN1CCOC(Cn2cccn2)C1)c1nccs1 (stereo not given) = 21.2
• CC(=O)NC1CCCN(C(=O)NCc2cccnc2-n2cccn2)C1 (stereo not given) = 7.69
• COC(=O)C1CCN(C(=O)c2ccc(C)c(NS(C)(=O)=O)c2)CC1 = 2.44
• CC(C)N(C)C(=O)CN1CCCC(c2ccc(C(=O)O)cc2)C1 (stereo not given) = 19.5

For every item below, please supply its Percent Effect.
1. CC(C)NC(=O)CC1COC2(CCN(Cc3cccs3)CC2)C1 (stereo not given)
2. Fc1cccnc1CN1CCCCC1c1ccn2ccnc2n1 (stereo not given)
3. CCCN1CCCn2nc(CNS(=O)(=O)c3cccc(C#N)c3)cc2C1

1. 7.5
2. 22.5
3. 21.9

For every item below, please supply its Percent Effect.
1. O=C(c1ccc2c(c1)OCO2)N1CCN(c2cnccn2)CC1
2. Cc1ncoc1C(=O)N1CCn2c(COCC3CC3)cnc2C1C (stereo not given)
3. CNc1cc(C2CCCN2C(=O)c2ccc3oc(=O)n(C)c3c2)ccn1 (stereo not given)
4. COc1ccc(-c2nc(CN3CCc4c(ncn4C)C3)cs2)cc1
5. O=C(c1ccccn1)N1Cc2nccn2CC(CN2CCOCC2)C1 (stereo not given)

1: 13.2; 2: 12.8; 3: 7.5; 4: 22.9; 5: 15.4

For every item below, please supply its Percent Effect.
1. COc1ccc(CNC(=O)N2CCC(Cc3cnn(C)c3)C2)cc1C (stereo not given)
2. CN1CC(c2ccccc2)CC12CCN(C(=O)c1cncc(Cl)c1)CC2 (stereo not given)
3. CCc1ncc2c(n1)CN(CC(=O)Nc1nnc(C)s1)CC2

[13.2, 14.6, 10.3]

* * *

# Target under test: Tyrosyl-tRNA synthetase, putative (Trypanosoma cruzi (strain CL Brener))
# Sequence (whole entry): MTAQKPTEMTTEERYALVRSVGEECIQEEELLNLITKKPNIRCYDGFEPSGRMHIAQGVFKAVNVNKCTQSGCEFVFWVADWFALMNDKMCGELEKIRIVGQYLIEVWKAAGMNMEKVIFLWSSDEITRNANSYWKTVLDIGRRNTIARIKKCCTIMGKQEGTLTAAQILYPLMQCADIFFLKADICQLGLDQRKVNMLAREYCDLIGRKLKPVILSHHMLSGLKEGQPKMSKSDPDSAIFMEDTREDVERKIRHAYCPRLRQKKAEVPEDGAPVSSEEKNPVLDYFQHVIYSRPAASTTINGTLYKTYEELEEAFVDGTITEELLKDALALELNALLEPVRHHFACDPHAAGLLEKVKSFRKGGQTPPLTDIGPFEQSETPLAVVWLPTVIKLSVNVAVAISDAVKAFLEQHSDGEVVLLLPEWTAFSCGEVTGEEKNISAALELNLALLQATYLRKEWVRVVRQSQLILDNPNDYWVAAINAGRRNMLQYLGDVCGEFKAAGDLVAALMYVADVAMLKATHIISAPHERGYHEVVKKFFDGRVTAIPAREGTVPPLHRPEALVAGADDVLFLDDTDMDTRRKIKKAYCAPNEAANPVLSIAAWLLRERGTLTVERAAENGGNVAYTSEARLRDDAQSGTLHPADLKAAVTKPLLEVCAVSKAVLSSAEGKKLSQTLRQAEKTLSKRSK
# Assay comment: Trypanosoma cruzi tyrosyl tRNA synthetase (TcYRS) SOP
# Format: functional
# Parameters: scale not given: direction of the effect not stated beside the values
# Condition set: 30 µM
Property label: Percent Effect (%)
Give bare numbers, in %.

Example entries begin here.
* Cc1ccc(C(=O)N2CCC3(CC2)CC(N2CCOCC2)C3)cc1 | 2.5
* N#Cc1cccc(N2CC3(CCN(C(=O)c4cccnc4)C3)CC2=O)c1 (stereo not given) | 15.4
* COc1ccc(C(N)c2cccc(S(C)(=O)=O)c2)cc1 (stereo not given) | 15.4
* Cc1cccc(CN2CCC3(CCN(c4ccccn4)C3)C2=O)c1 (stereo not given) | 12.5

Consider the record given below.
The molecule identified as c1ccc(-n2ccc(CN3CCCC3Cn3cccn3)n2)cc1 (stereo not given) registered its Percent Effect at -11.8

Attribution: ChEMBL document CHEMBL3988442
